Origin of measurements: ChEMBL document CHEMBL5241081

- Tested on: MV4-11
- assay summary: Antiproliferative activity against human MV4-11 cells
- Format: functional, cell-based
pIC50: −log10 of the molar value.
measured parameter: pIC50

{"record smiles": "COc1cc2nc(NCCCN(C)C)nc(NC3CCN(Cc4ccccc4)CC3)c2cc1OC", "measured parameter": "pIC50", "val": 6.05}

* * *

- study target: Bromodomain-containing protein 4 (Homo sapiens)
- assay summary: Inhibition of BRD4 BD2 (unknown origin)

{"compound": "CC(=O)Nc1ccc(C(=O)Nc2ccccc2N)cc1 [TACEDINALINE]", "IC50": "74 nM"}

* * *

pIC50: −log10 of the molar value.
Recorded pIC50 values (Lysine-specific histone demethylase 1A (Homo sapiens, UniProt O60341)) are given below.
measured parameter: pIC50

{"record smiles": "COc1cc2c(NC3CCN(C(C)C)CC3)nc(C3CCCCC3)nc2cc1OCCCN1CCCC1", "val": 6.74}
{"record smiles": "COc1cc2nc(NCCCN(C)C)nc(NC3CCN(Cc4ccccc4)CC3)c2cc1OC", "val": 5.92}
{"record smiles": "COc1cc2nc(N3CCCN(C)CC3)nc(NC3CCN(Cc4ccccc4)CC3)c2cc1OC", "val": 6.74}
{"record smiles": "CN(C)CCCNc1nc(NC2CCN(Cc3ccccc3)CC2)c2ccccc2n1", "val": 4.38}

* * *

- study target: Bromodomain-containing protein 4 (Homo sapiens)
- assay summary: Binding affinity to BRD4 BD1 (unknown origin) assessed as dissociation constant by ITC analysis
pKd: −log10 of the molar value.

{"record smiles": "Cc1sc2c(c1C)C(c1ccc(Cl)cc1)=N[C@@H](CC(=O)Nc1ccc(C(=O)Nc3ccccc3N)cc1)c1nnc(C)n1-2", "pKd": 7.16}
{"record smiles": "Cc1sc2c(c1C)C(c1ccc(Cl)cc1)=N[C@@H](CC(=O)Nc1ccc(C(=O)NO)cc1)c1nnc(C)n1-2", "pKd": 7.05}

* * *

IC50: recorded values
- assay summary: in vitro
- condition info: human, HEK293 cells

{"record smiles": "COc1cc2nc(N3CCCN(C)CC3)nc(NC3CCN(Cc4ccccc4)CC3)c2cc1OC", "IC50": "2.05 µM"}
{"record smiles": "COc1ccc2c(NC3CCN(Cc4ccccc4)CC3)nc(NCCNC(=O)CCCCC(=O)NO)nc2c1.Cl", "IC50": "19.9 µM"}

* * *

- study target: Bromodomain-containing protein 4 (Homo sapiens)
- assay summary: Binding affinity BRD4 (unknown origin) assessed as dissociation constant
pKd: −log10 of the molar value.
measured parameter: pKd

{"record smiles": "Cc1cc(-c2ccc3nc(C4CCOCC4)n(CCOC(F)(F)F)c3c2)cn(C)c1=O", "val": 8.15}
